Tested on: SK-MEL-5 melanoma
Test: NCI-60 one-dose screen, 48 h
Conditions: 10 µM unless noted
Compounds without any hit were thinned out: in the full panel of roughly 83,000, 20% have a hit. The source made the active and inactive calls. Rule for the calls: active = growth percent below 10; inactive = the rest.
Classes used: 1.0 for active, 0.0 for inactive

- entry.smiles: "CC(=O)Oc1csc(N(C(C)=O)c2cc(C(=O)O)cc(C(=O)O)c2)n1"
  class.assignment: 0.0
- entry.smiles: "COc1ccc(-c2c(-c3cc(OC)c4c(c3)OCO4)noc2N)cc1"
  class.assignment: 1.0
- entry.smiles: "O=c1[nH]c(-c2ccccc2)nc(CN2CCCCC2)c1O"
  class.assignment: 0.0
- entry.smiles: "O=C(NCCNc1nccc(-n2ccc3cccnc32)n1)c1ccc(C(F)(F)F)cc1"
  class.assignment: 0.0
- entry.smiles: "N=C(N)c1ccc(-c2ccc(-c3ccc4ccccc4c3)s2)cc1"
  class.assignment: 0.0
- entry.smiles: "CC(=O)Oc1csc(N(C(C)=O)c2cccc(C(F)(F)F)c2)n1"
  class.assignment: 0.0

* * *

Test system: OVCAR-3 ovarian
Test: NCI-60 one-dose screen, 48 h
Settings: 10 µM unless noted
Method: Growth inhibition of the OVCAR-3 human tumor cell line is measured as a screen for anti-cancer activity. Cells are grown in 96 well plates and exposed to the test compound for 48 hours. Compounds are tested at a single concentration, which is 10^-5 M for most compounds. The reported endpoint is percent growth (GI% or GIPRCNT), where numbers from 0 - 100% represent growth inhibition, and numbers from -100% - 0 represent cell death. For example, a value of 40 represents 60% growth inhibition. […]
Compounds without any hit were thinned out: in the full panel of roughly 83,000, 20% have a hit. Active and inactive are the calls of the source. Rule for the calls: active = growth percent below 10; inactive = the rest.
Classes used: Y (active), N (inactive)

- compound: "O=C1/C(=C/c2ccccc2)CN(C(=O)CCN2CCC(=NO)CC2)C/C1=C\\c1ccccc1"
  class.assignment: "Y"
- compound: "O=C(O)COc1ccc(-c2cssc2=S)cc1"
  class.assignment: "N"
- compound: "COC(=O)c1cc2cc(-c3ccc(OC)cc3)cnc2[nH]1"
  class.assignment: "Y"
- compound: "NC(=N\\N=C/c1ccc(O)cc1)/C(N)=N\\N=C/c1ccc(O)cc1"
  class.assignment: "N"
- compound: "COc1cccc(-c2nc3sccn3c2-c2ccnc(NCCCNS(=O)(=O)c3ccc(C(F)(F)F)cc3)c2)c1"
  class.assignment: "N"
- compound: "COc1ccc(/C(C#N)=C/c2cc(OC)c(OC)c(OC)c2)cc1"
  class.assignment: "N"
- compound: "Brc1cccc(-c2cc(-c3ccc4c(c3)OCCCO4)[nH]n2)c1"
  class.assignment: "N"
- compound: "C/C(=N/NC(=S)Nc1ccccc1)c1nc2ccc(Cl)cc2[nH]1"
  class.assignment: "Y"
- compound: "O=C(Nc1ccc(Cl)c(Cl)c1)NS(=O)(=O)c1cnccc1Oc1ccc(F)cc1"
  class.assignment: "Y"
- compound: "c1ccc(Nc2nc(Nc3ccccc3)nc(Nc3ccccc3)n2)cc1"
  class.assignment: "N"
- compound: "O=[N+]([O-])c1ccc(Sc2ncccn2)c([N+](=O)[O-])c1"
  class.assignment: "Y"
- compound: "CCC(=O)OC1=CN2C(=NC(c3ccc(N)cc3)=CC2c2cc(OC)c(OC)c(OC)c2)S1 (stereo not given)"
  class.assignment: "N"
- compound: "CC1=C(C#N)C(=O)NC(C)C1 (stereo not given)"
  class.assignment: "N"
- compound: "C=C[C@@H]1C[C@@H]2Cc3ccccc3N1O2"
  class.assignment: "N"
- compound: "CCCCCCCC[C@@H](O)CC(=O)N[C@@H](CC(N)=O)C(=O)N[C@@H](CCC(N)=O)C(=O)N[C@@H](CC(=O)c1cc(C)cc(O)c1C(=O)c1c(O)cccc1O)CC(C)C"
  class.assignment: "Y"
- compound: "COc1ccc(-c2nc(SCCC(C)C)nc(Nc3ccc(F)c(Cl)c3)c2C#N)cc1"
  class.assignment: "N"
- compound: "Clc1cc(Cl)c2nc(-c3ccc(-c4ccc(/C=N/NC5=NCCN5)cc4)s3)cn2c1"
  class.assignment: "N"
- compound: "OCCCCCCNc1ncnc2cc(Cl)ccc12"
  class.assignment: "N"
- compound: "C/C(=C\\c1ccc(OCC(=O)O)c(Cl)c1Cl)[N+](=O)[O-]"
  class.assignment: "N"
- compound: "CN(C[C@H]1Cc2c(cccc2N2CCN(Cc3ccccn3)CC2)CN1)[C@H]1CCCc2cccnc21"
  class.assignment: "N"
- compound: "COc1ccc(Nc2ncccc2C(=O)NCc2cn(Cc3cccc(Oc4ccccc4)c3)nn2)c(OC)c1"
  class.assignment: "Y"
- compound: "COc1ccc(NC(=O)c2c(Nc3ccc(OC)cc3OC)n[nH]c2N)c(OC)c1"
  class.assignment: "N"
- compound: "COC(=O)C(Sc1ccc(Cl)cc1)C1SC(=S)N(Cc2ccccc2)C1=O (stereo not given)"
  class.assignment: "N"
- compound: "CCOC(=O)c1cc(C(=O)c2cc(OC)c(OC)c(OC)c2)n2c1ccc1ccccc12"
  class.assignment: "Y"
- compound: "COc1cc(-c2nn(-c3cccc(NC(=O)Nc4cc(C(F)(F)F)cc(C(F)(F)F)c4)c3)cc2-c2ccncc2)ccc1Cl"
  class.assignment: "Y"
- compound: "Cc1[nH]c2ccc(F)cc2c1CCNC(=O)C1CCN(C(=O)c2ccccc2)CC1"
  class.assignment: "N"
- compound: "CC(C)(C)OC(=O)NCCc1ccc(N=C=S)cc1"
  class.assignment: "N"
- compound: "CCCCOc1ccc(/C=C2/SC(N3CCCC3)=NC2=O)cc1"
  class.assignment: "N"
- compound: "O=S(=O)(NCCCNc1nccc(-n2ccc3cccnc32)n1)c1ccc(Br)cc1"
  class.assignment: "N"
- compound: "COc1ccc(CN2CCc3c(Sc4ccccc4)nc(N)nc3C2=O)c(OC)c1"
  class.assignment: "N"
- compound: "CCN1CCN(c2nc(NNC(=O)c3ccccc3)nc(N3CCN(C(c4ccccc4)c4ccccc4)CC3)n2)CC1"
  class.assignment: "N"
- compound: "CC(C)(C)n1cc(-c2ccnc(NCCNS(=O)(=O)c3ccc(F)cc3)c2)c(-c2cccc(O)c2)n1"
  class.assignment: "N"
- compound: "Cc1ccc(S(=O)(=O)NC(=O)n2cc(-c3ccncc3)c(-c3ccc(Cl)c(O)c3)n2)cc1"
  class.assignment: "N"
- compound: "Nc1cccc(-c2nc3sccn3c2-c2ccnc(NCCNS(=O)(=O)c3ccc(C(F)(F)F)cc3)n2)c1"
  class.assignment: "N"
- compound: "CCOC(=O)C1C(=O)C=C(c2ccc(OC)cc2)CC1c1sc(N(C)Cc2ccccc2)nc1Cl (stereo not given)"
  class.assignment: "N"
- compound: "COc1ccc(-c2cc(-c3ccccc3)nc(SCCCC(=O)NO)n2)cc1OC"
  class.assignment: "Y"
- compound: "O=C1NN(C(=O)c2ccc(Cl)cc2)C(c2ccccc2)=N/C1=C\\c1cn(-c2ccccc2)nc1-c1ccccc1"
  class.assignment: "N"
- compound: "COc1cc(C(=O)/C=C/c2ccc3nc(-c4cc(F)cc(F)c4)sc3c2)cc(OC)c1OC"
  class.assignment: "N"
- compound: "NC(=S)N/N=C(/CCN1CCCC1)CC(C1=C(O)C2=CCCCC2OC1=O)c1ccccc1 (stereo not given)"
  class.assignment: "N"
- compound: "O=[N+]([O-])c1cnc(Sc2ccncn2)s1"
  class.assignment: "Y"

* * *

Tested on: K-562 leukemia
Test: NCI-60 one-dose screen, 48 h (100 = growth as untreated, 0 = no growth, -100 = all killed)
Settings: 10 µM unless noted
About 83,000 compounds went through this panel and 20% of them were active in at least one assay; those are over-represented in the sample as a whole.
growth for assorted compounds
measure: growth (%)

- compound: "CC1(C)C(=O)/C(=C\\c2ccc(C(F)(F)F)cc2)C[C@]2(C)[C@H]3CC[C@@H]4[C@H]5[C@H](C(=O)/C=C/c6ccc(C(F)(F)F)cc6)CC[C@]5(CO)CC[C@@]4(C)[C@]3(C)CC[C@@H]12"
  measure: "growth"
  result.number: 86.9
- compound: "COc1cc(NC(N)=NCCC(C)(C)Oc2ccc(C(F)(F)F)cc2)ncc1C#N"
  measure: "growth"
  result.number: -43.7
- compound: "O=C1NN(C(=O)c2ccc(Cl)cc2)C(c2ccccc2)=N/C1=C\\c1cn(-c2ccccc2)nc1-c1ccccc1"
  measure: "growth"
  result.number: 99.2
- compound: "O=C1NN(C(=O)c2ccc(Cl)cc2)C(c2ccccc2)=N/C1=C\\c1ccc(F)cc1"
  measure: "growth"
  result.number: 83.2
- compound: "O=C(CCl)N(C1CCCCC1)C1CCCCC1"
  measure: "growth"
  result.number: 104
- compound: "COc1ccc(-c2nc(/C=C3/C(=O)Nc4ccc(F)cc43)c3ccccn23)cc1"
  measure: "growth"
  result.number: 87.2
- compound: "CCN(CC)CCOc1ccc(Cl)c(C)c1"
  measure: "growth"
  result.number: 111
- compound: "CC(C)(C)n1cc(-c2ccnc(NCCNS(=O)(=O)c3ccc(C(F)(F)F)cc3)c2)c(-c2cccc(O)c2)n1"
  measure: "growth"
  result.number: 7.42
- compound: "Cc1ccc(C(=O)NCCCNc2nccc(-n3ccc4cccnc43)n2)cc1"
  measure: "growth"
  result.number: 92.1
- compound: "CCOC(=O)CN1/C(=N/c2sc3c(c2C(=O)OCC)CCN(C(=O)OCC)C3)SC(=O)/C1=C\\C(=O)OC"
  measure: "growth"
  result.number: 64.2
- compound: "CC(C)(C)n1cc(-c2ccnc(NCCCNS(=O)(=O)c3ccccc3)c2)c(-c2cccc(O)c2)n1"
  measure: "growth"
  result.number: 4.86
- compound: "COc1cc(-c2ncn(/C=C\\C(=O)OC(C)C)n2)cc(C(F)(F)F)c1"
  measure: "growth"
  result.number: 3.62
- compound: "c1ccc(-c2cn(-c3ccccc3)c(-c3ccccc3)n2)cc1"
  measure: "growth"
  result.number: -51.5
- compound: "O=C(NS(=O)(=O)c1ccc2ccccc2c1)n1cc(-c2ccncc2)c(-c2ccc(Cl)c(O)c2)n1"
  measure: "growth"
  result.number: 85.6
- compound: "CCOC(=O)C1C(=O)C=C(c2ccc(OC)cc2)CC1c1sc(N(C)Cc2ccccc2)nc1Cl (stereo not drawn)"
  measure: "growth"
  result.number: 68.4
- compound: "COc1ccc(/C=C2/C(=O)NC(SCC(=O)N3CCN(c4cc5c(cc4F)c(=O)c(C(=O)O)cn5C4CC4)CC3)=NC2N)cc1OC (stereo not drawn)"
  measure: "growth"
  result.number: 107
- compound: "COc1ccc2c(c1)[nH]c(=O)c1c3cc(C)c(C)cc3cn21"
  measure: "growth"
  result.number: 35.9
- compound: "CCN(CC)c1ccc2[nH]c3c(C(N)=O)cc(=O)c(=O)c=3oc2c1"
  measure: "growth"
  result.number: 9.48
